Would you kindly list pIC50 for each of these molecules?
# assayTarget: Tyrosine-protein kinase JAK1 (Homo sapiens)
# Sequence (P23458 whole entry, the tested form may be a part): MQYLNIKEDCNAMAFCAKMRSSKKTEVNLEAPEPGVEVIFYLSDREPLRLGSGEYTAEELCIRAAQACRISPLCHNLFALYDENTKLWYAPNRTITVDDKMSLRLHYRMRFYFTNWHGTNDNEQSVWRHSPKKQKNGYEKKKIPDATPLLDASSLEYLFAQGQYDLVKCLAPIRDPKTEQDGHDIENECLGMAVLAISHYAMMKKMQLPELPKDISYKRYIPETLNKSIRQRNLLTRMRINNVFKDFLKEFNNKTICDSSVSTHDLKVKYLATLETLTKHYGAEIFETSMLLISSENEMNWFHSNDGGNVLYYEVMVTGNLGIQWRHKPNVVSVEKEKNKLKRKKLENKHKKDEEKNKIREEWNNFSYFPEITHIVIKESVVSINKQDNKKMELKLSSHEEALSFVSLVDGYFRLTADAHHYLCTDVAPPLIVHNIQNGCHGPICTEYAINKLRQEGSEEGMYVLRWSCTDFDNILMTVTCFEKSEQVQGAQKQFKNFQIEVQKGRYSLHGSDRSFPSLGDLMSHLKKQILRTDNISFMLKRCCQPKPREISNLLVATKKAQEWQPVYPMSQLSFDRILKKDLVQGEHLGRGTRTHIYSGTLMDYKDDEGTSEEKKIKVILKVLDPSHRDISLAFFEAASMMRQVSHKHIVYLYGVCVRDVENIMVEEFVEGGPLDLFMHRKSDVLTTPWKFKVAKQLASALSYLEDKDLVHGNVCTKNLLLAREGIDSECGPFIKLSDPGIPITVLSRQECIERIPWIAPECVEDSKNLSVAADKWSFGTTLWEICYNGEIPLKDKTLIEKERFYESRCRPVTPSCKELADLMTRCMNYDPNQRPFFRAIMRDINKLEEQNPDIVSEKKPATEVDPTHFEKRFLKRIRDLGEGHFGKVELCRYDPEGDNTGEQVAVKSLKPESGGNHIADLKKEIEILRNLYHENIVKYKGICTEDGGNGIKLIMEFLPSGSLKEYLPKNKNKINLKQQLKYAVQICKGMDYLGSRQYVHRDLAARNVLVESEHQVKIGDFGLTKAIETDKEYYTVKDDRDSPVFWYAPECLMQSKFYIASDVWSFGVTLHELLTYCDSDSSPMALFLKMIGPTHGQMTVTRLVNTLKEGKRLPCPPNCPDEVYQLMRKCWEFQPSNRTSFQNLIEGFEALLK
# assayProcedure: Inhibition of recombinant human N-terminal GST-tagged JAK1 (866 to 1154 residues) expressed in insect cells using FITC-labeled C6-KKHTDDGYMPMSPGVA-NH peptide as substrate after 10 mins in presence of 5 mM ATP by caliper mobility shift assay
Numbers only, as −log10 of the molar value.

Sample answers from the record:
• Cc1cnc(NC(=O)C2CC2)nc1-c1c[nH]c2c(NC(=O)CN3CCN(C)CC3)cccc12 = 6.34
• COc1nn(C)cc1Nc1nccc(-c2c[nH]c3c(NC(=O)[C@@H](C)N4CCN(C)CC4)cccc23)n1 [GOLIDOCITINIB] = 7.15
• Cc1cnc(NC(=O)C2CC2)nc1-c1c[nH]c2c(NC(=O)CN3CCOCC3)cccc12 = 5.62

Hi, could you look up pIC50 for each item in my list?
1. Cc1ccc(C(=O)Nc2cccc3c(-c4nc(Nc5cnn(C)c5)ncc4C)c[nH]c23)c(C)n1
2. COc1nn(C)cc1Nc1ncc(C)c(-c2c[nH]c3c(C(=O)Nc4ccc(C)nc4C)cccc23)n1
3. Cc1cnc(NC(=O)C2CC2)nc1-c1c[nH]c2c(NC(=O)[C@@H](C)N3CCN(C)CC3)cccc12
4. COc1nn(C)cc1Nc1ncc(C)c(-c2c[nH]c3c(NCc4ccc(C)nc4C)cccc23)n1
5. Cc1ccc(C(=O)Nc2cccc3c(-c4nc(NC(=O)C5CC5)ncc4C)c[nH]c23)c(C)n1

[out]
8.40
6.59
6.74
8.40
7.37

These data points were gathered from ChEMBL document CHEMBL4402602.
